Data provenance is PubChem BioAssay (NCI).

Experiment: NCI Yeast Anticancer Drug Screen. Data for the sgs1 mgt1 strain (AID 161)
Details: S. cerevisiae sgs1 mgt1 strain, at 50.0 µM (retest, dose inferred, filed as 5.0)
Procedure: Growth inhibition of yeast strains with defined genetic alterations is measured as a screen for potential anti-cancer activity. Selected strains with alterations in DNA damage repair or cell cycle control were exposed to compounds and growth inhibition was measured relative to vehicle treated controls. The strain used in this assay is sgs1 mgt1
About 79,000 compounds went through this panel and 15% of them were active in at least one assay; those are over-represented in the sample as a whole. Active and inactive are the calls of the source. Cut-off read from the data, not from the text of the source: active = growth inhibition above about 70%; inactive = the rest.
Classes used: active, inactive

compound=O=Cc1ccccc1C=O category_label=inactive
compound=CCCCCCCCCCCCCCN category_label=active
compound=CCOC(=O)/C(=C\c1cccc(C)c1)C(C)=O category_label=active
compound=O=[N+]([O-])c1ccc(S(=O)(=O)Cc2ccccc2)c([N+](=O)[O-])c1 category_label=active
compound=CNC(=O)OCc1c2ccncc2c(C)c2c1[nH]c1ccccc12 category_label=inactive
compound=O=c1cccccc1[O-].O=c1cccccc1[O-].O=c1cccccc1[O-].[Eu+3] category_label=inactive
compound=c1ccc2nc3c(nc2c1)sc1ccccc13 category_label=inactive
compound="CC(C)(CN1CCCCC1)C(=O)CC(SCCS(=O)(=O)O)c1ccccc1 (centres undefined)" category_label=inactive
compound="CC(=O)O[C@H]1CC[C@@]2(C)C(=CC[C@@H]3C2CC[C@]2(C)C(=O)NC(=O)CC32)C1 (some centres undefined)" category_label=active
compound=O=C(CCSC1=NCCCN1)c1ccc(F)cc1 category_label=active
compound=CC(=O)/C=C/c1cc([N+](=O)[O-])ccc1O category_label=active
compound=C/C(=N\Sc1ccccc1)c1ccccc1O category_label=inactive
compound=O=C1c2ccccc2-c2ccc(N=Cc3ccccc3)cc21 category_label=inactive
compound=O=C(NCCNCCNC(=O)c1cc(-c2ccccc2)nc2ccccc12)c1cc(-c2ccccc2)nc2ccccc12 category_label=inactive
compound=Brc1ccc(B2Nc3ccccc3N2)cc1 category_label=active
compound=O=C(Oc1ccc([N+](=O)[O-])cc1)c1ccc([N+](=O)[O-])cc1 category_label=active
compound=Clc1nc(Cl)nc(Nc2cccc3ccccc23)n1 category_label=inactive
compound=CCCCCCCCSC1=C(Cl)C(=O)C(OC)=C(OC)C1=O category_label=inactive
compound=CN(C)/C(=N/C(=S)Nc1ccccc1)SCc1ccccc1 category_label=active
compound=Cn1c(-c2ccc(/C=N\N3CCN(/N=C/c4ccc(-c5c[n+]6ccsc6n5C)cc4)CC3)cc2)c[n+]2ccsc12 category_label=inactive
compound=Cc1cc(O)c(C(C)C)cc1SC#N category_label=active
compound="O=C(O)C1CCCCC1c1c2ccc(=O)cc-2oc2cc(O)ccc12 (centres undefined)" category_label=active
compound=CCCCS(=O)(=O)Nc1ccc(Nc2c3ccccc3nc3ccccc23)c(OC)c1 category_label=active
compound=Cc1ccc(S(=O)(=O)Nc2cccc3cccnc23)cc1 category_label=inactive
